Target protein (sequence): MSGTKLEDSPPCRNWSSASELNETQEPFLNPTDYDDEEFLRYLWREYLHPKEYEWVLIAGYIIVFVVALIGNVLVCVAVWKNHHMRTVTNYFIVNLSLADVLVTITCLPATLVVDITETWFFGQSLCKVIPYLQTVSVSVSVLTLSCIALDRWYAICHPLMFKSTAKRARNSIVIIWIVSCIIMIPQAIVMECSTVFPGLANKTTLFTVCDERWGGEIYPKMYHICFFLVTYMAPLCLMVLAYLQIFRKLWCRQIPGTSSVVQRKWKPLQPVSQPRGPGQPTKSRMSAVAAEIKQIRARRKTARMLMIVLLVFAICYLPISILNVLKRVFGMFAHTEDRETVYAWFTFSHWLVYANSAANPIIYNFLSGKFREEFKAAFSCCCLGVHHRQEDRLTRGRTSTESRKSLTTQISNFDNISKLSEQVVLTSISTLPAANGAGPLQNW
Please find below Ki measurements for the protein given by its sequence, combined from several publications.
Quantity Kind: Ki (nM)

Compound	Quantity Kind	Relation Operator	Measurement
Cc1ccc(-n2nccn2)c(C(=O)N2C[C@H](C#Cc3cccnc3O)CC[C@H]2C)c1	Ki	=	24
Cc1cnc(OC[C@@]2(c3ccccc3)C[C@H]2C(=O)Nc2ccc(C#N)cn2)c(C)n1	Ki	=	21
COc1ccc(-n2c(=O)c3ccccc3n(Cc3ccccc3Cl)c2=O)cc1OC	Ki	>	10000
COc1ccc(OCC2(c3ccccc3)CC2C(=O)Nc2ccc(C#N)cn2)cc1OC (single isomer, unassigned; (+))	Ki	>	2000
C[C@@H]1CC[C@@H](Oc2cc(Br)ccn2)CN1C(=O)c1ccccc1-n1nccn1	Ki	=	1.8
Cc1ccc(-n2nccn2)c(C(=O)N2CCCN(c3ncc4ccccc4n3)CC2)c1	Ki	=	0.59
O=C(c1ccccc1-n1nccn1)N1CCC(F)(F)C(Oc2ccc3cccnc3n2)C1 (centres undefined)	Ki	>	1410
COc1ccc(OC[C@@]2(c3ccccc3)C[C@H]2C(=O)Nc2ccccc2)cc1OC	Ki	=	7.2
O=C(c1ccccc1F)N1CCC(F)(F)C(Oc2ccc3ccccc3n2)C1 (racemic)	Ki	>	1770
C#Cc1ccnc(O[C@@H]2CC[C@@H](C)N(C(=O)c3ccccc3-n3nccn3)C2)c1	Ki	=	0.6
Cc1ccc(-n2nccn2)c(C(=O)N2C[C@H](C#Cc3cccc(CO)c3)CC[C@H]2C)c1	Ki	=	0.53
COc1ccc(CNC(=O)c2cc(-c3cncc(C)c3)ncc2-c2cnn(C)c2)nc1OC	Ki	=	4.1
Cc1cc(C)cc(-c2cnc(-c3cccnc3)c(C(=O)NCc3ccc(C(F)(F)F)c(F)c3)c2)c1	Ki	=	4.1
CC1(C)OC[C@H](NC(=O)Nc2ccccc2-c2ccsc2)[C@H](c2ccccc2)O1	Ki	=	79.4
Cc1ccc(-n2nccn2)c(C(=O)N2CC3CC2CN(c2ncc4ccccc4n2)C3)c1 (centres undefined)	Ki	=	11
COc1ccc(CNC(=O)c2nc(-c3cncc(C)c3)ncc2-c2ccccc2)nc1OC	Ki	=	11
O=C(c1ccccc1)N1CCC(F)(F)C(Oc2ccc3ccccc3n2)C1 (racemic)	Ki	>	12700
COC(=O)c1cccnc1O[C@@H]1CC[C@@H](C)N(C(=O)c2ccccc2-n2nccn2)C1	Ki	=	2.5
Cc1ccc(OCC2(c3ccccc3)CC2C(=O)Nc2ccc(C#N)cn2)c(C)n1 (racemic)	Ki	=	222

---

Target Under Test: Orexin receptor type 2 (Homo sapiens, UniProt O43614)
Sequence (O43614 whole entry): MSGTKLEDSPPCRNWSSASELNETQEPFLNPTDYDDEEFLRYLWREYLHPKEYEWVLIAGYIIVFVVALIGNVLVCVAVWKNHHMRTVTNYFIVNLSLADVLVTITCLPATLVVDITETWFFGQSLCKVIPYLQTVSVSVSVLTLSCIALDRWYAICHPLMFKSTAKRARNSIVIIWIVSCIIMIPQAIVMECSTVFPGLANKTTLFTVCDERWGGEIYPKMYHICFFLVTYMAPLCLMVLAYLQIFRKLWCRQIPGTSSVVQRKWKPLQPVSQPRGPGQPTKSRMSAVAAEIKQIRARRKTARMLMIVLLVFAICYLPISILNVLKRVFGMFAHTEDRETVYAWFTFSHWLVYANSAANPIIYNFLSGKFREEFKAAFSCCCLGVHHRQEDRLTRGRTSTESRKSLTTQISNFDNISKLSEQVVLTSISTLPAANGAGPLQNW
Target or system Orexin receptor type 2 (Homo sapiens, UniProt O43614); metric Ki; compiled from varied reports.
Threshold-based label: Ki under 3 nM gives MET, Ki not under 3 nM gives NOT MET.

Compound	Assigned Label
CC1CCC(Oc2cccc3ncccc23)CN1C(=O)c1ccccc1-n1nccn1 (racemic)	NOT MET
Cc1cccc(O[C@@H]2CC[C@@H](C)N(C(=O)c3ccccc3-n3nccn3)C2)n1	NOT MET
Cc1ncc(OC[C@@]2(c3ccccc3)C[C@H]2C(=O)Nc2cccnc2)c(C)n1	NOT MET
C[C@@H]1CC[C@@H](Oc2cc(-c3ccccc3)ccn2)CN1C(=O)c1ccccc1-n1nccn1	NOT MET
CNc1cc(N2C(=O)N(Cc3c(F)cc(OC)cc3F)c3ncccc3S2(=O)=O)cnc1OC	MET
Cn1c(CCC(=O)N2CCC[C@H]2C(=O)Nc2ccccc2-n2cccc2)nc2ccccc21	MET
COc1cnc(O[C@@H]2CC[C@@H](C)N(C(=O)c3ccccc3-n3nccn3)C2)c2ccccc12	MET
O=C(c1nccc2[nH]cnc12)N1CCC(F)(F)[C@@H](Oc2ccc3ccccc3n2)C1	NOT MET
Cc1ccc(-n2nccn2)c(C(=O)N2C[C@H]3CC[C@@H]2CN(c2ncc4ccc(F)cc4n2)C3)c1 (single isomer, unassigned)	MET
COc1ccc([C@]2(COc3ccccc3)C[C@H]2C(=O)Nc2ccccn2)cc1OC	NOT MET
COc1cc(N2C(=O)N(Cc3c(F)cc(F)cc3F)c3ccccc3S2(=O)=O)cc(OC)n1	MET
Cc1ccc(-n2nccn2)c(CN2CCCN(c3ncc4ccccc4n3)CC2)c1	NOT MET
CC(C)c1ccccc1NC(=O)N[C@H]1COC(C)(C)O[C@H]1c1ccccc1	NOT MET
COc1ccc(OC[C@@]2(c3ccccc3)C[C@H]2C(=O)N2CCCc3ccccc32)cc1OC	NOT MET
CC1CCC(Oc2ccnc3ccccc23)CN1C(=O)c1ccccc1-n1nccn1 (racemic)	NOT MET
Cc1ccc(-n2nccn2)c(C(=O)N2CC3CC(C2)N(c2ncc4ccccc4n2)C3)c1 (single isomer, unassigned; enantiomer B)	MET
COc1ccc(CNC(=O)c2cc(-c3cncc(C)c3)nnc2-c2ccccc2)nc1OC	NOT MET

---

Several reports have described pKi for Orexin receptor type 2 (Homo sapiens, UniProt O43614); a selection of those results is presented here.
pKi: −log10 of the molar value.

Smiles Input	pKi
Cc1ccc(-n2nccn2)c(C(=O)N2C[C@H](C#Cc3cncc(CO)c3)CC[C@H]2C)c1	7.49
COc1ccc(CNC(=O)c2cc(-c3cncc(C)c3)nc3onc(-c4ccccc4)c23)nc1OC	8.05
COc1ccc(N2C(=O)N(Cc3c(F)cc(F)cc3Cl)c3ccccc3S2(=O)=O)cc1OC	9.00
CC1(C)OC[C@H](NC(=O)Nc2ccccc2C(F)(F)F)[C@H](c2ccccc2)O1	7.00
Cc1ccnc(O[C@@H]2CC[C@@H](C)N(C(=O)c3ccccc3-n3nccn3)C2)c1	8.59

---

The entries that follow carry pKi values tested on Orexin receptor type 2 (Homo sapiens), drawn from several published reports.
pKi: −log10 of the molar value.

Compound	Relation Operator	pKi
CC1(C)OC[C@H](NC(=O)Nc2ccc(Br)cc2Cl)[C@H](c2ccccc2)O1	=	8.20
Cc1ccc(-n2nccn2)c(C(=O)N2CCCC(Oc3ccc(F)c(C)c3)C2)c1 (centres undefined)	=	7.26
CC1(C)OC[C@H](NC(=O)Nc2ccccc2Cl)[C@H](c2ccccc2)O1	<	5.00
Cc1nc(C(=O)N2CCCC[C@H]2CNC(=O)c2cccc3occc23)c(-c2ccc(F)cc2)s1	=	8.07
O=C(Nc1ccccc1-n1cccc1)[C@@H]1CCCN1C(=O)CSc1nc2ccccc2[nH]1	=	9.00
COc1ccc(CNC(=O)c2cc(-c3cccc(Cl)c3)cnc2-c2cccnc2)cc1OC	=	8.89
COc1cc(F)c(CN2C(=O)N(c3ccc(OC)c(OC)c3)S(=O)(=O)c3ccccc32)c(Cl)c1	=	10.00
COc1ccc(CNC(=O)c2cc(-c3cncc(C)c3)ncc2-c2cncc(F)c2)nc1OC	=	8.28
CC1(C)OC[C@H](NC(=O)Nc2cc(Cl)ccc2Cl)[C@H](c2ccccc2)O1	<	5.30

---

Dear all, I have gathered published Ki values for the protein given by its sequence; the list follows.
Target sequence: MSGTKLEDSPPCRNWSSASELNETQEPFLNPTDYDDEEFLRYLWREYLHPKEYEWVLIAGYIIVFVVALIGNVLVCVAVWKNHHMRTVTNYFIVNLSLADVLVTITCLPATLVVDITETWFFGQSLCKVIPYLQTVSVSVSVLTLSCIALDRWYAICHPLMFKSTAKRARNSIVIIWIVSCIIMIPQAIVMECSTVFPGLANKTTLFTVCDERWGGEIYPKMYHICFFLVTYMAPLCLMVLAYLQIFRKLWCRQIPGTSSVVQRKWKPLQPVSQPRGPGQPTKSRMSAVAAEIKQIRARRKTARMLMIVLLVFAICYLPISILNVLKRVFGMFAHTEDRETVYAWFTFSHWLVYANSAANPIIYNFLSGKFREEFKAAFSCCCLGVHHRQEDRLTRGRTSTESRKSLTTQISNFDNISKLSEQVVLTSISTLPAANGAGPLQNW

Compound	Relation Operator	Ki [nM]
O=C(Nc1ccccc1Oc1ccccc1)[C@@H]1CCCN1C(=O)CSc1nc2ccccc2[nH]1	=	3
COc1ccc(CNC(=O)c2cc(-c3cc(C)cc(F)c3)cnc2-c2cccnc2)cc1OC	=	0.8
Cc1ccc(-n2nccn2)c(C(=O)N2C[C@H](C#Cc3ccnc(CO)c3)CC[C@H]2C)c1	=	25
COc1ccccc1-c1ccccc1NC(=O)[C@@H]1CCCN1C(=O)CCc1nc2ccccc2[nH]1	=	2
CS(=O)(=O)c1cncc(N2C(=O)N(Cc3c(F)cc(F)cc3F)c3ncccc3S2(=O)=O)c1	=	50.1
O=C(c1ccccc1-n1nccn1)N1CCC(F)(F)C(Oc2cnc3ccccc3n2)C1 (stereo unspecified)	=	933
C[C@@H]1CC[C@@H](Oc2ccc3ccccc3n2)CN1C(=O)c1ccccc1-n1nccn1	=	9
Cc1ccc(-n2nccn2)c(C(=O)N2C[C@H](Oc3cccc4ccccc34)CC[C@H]2C)c1 (relative stereo)	=	1
C[C@@H]1CCN(c2cnc3cc(F)c(F)cc3n2)CCN1C(=O)c1ccccc1-n1nccn1	=	0.25
O=C(Nc1ccccc1-c1ccccc1)[C@@H]1CCCN1C(=O)CCc1nc2ccccc2[nH]1	=	6
Cc1ccc(-n2nccn2)c(C(=O)N2C3CCC2CN(c2ncc4ccc(F)cc4n2)CC3)c1 (single isomer, unassigned; 8a)	=	0.4
Cc1ccc(-n2nccn2)c(C(=O)N2CCCC(COc3ccc(F)c(C)c3)C2)c1 (stereo unspecified)	=	8.9
COc1ccc(CNC(=O)c2cc(-c3cc(C(F)(F)F)cc(C(F)(F)F)c3)cnc2-c2cccnc2)cc1OC	=	121
COc1ccnc(O[C@@H]2CC[C@@H](C)N(C(=O)c3ccccc3-n3nccn3)C2)c1	=	1.3
CC1(C)OC[C@H](NC(=O)Nc2ccccc2)[C@H](c2ccccc2)O1	=	501
CC1(C)OC[C@H](NC(=O)Nc2ccc(Cl)cc2Cl)[C@H](c2ccccc2)O1	=	2510
Cc1ccc(-n2nccn2)c(C(=O)N2CC[C@H]3CC[C@@H]2CN3c2ncc3ccc(F)cc3n2)c1	=	590
Cc1ccc(-c2ncccn2)c(C(=O)N2CC(COc3ccc(F)cn3)CC[C@H]2C)c1 (stereo partly specified)	=	11
CCn1cc(OC[C@]2(c3ccccc3)C[C@@H]2C(=O)Nc2ccc(C#N)cn2)c(C)n1	>	2000
CC1CCC(Oc2ccnc3c(Br)cccc23)CN1C(=O)c1ccccc1-n1nccn1 (racemic)	=	2.6
COc1ccccc1NC(=O)N[C@H]1COC(C)(C)O[C@H]1c1ccccc1	>	10000
COc1cc(N2C(=O)N(Cc3c(F)cc(F)cc3Cl)c3ccccc3S2(=O)=O)cnc1OC	=	1.58
COc1ccc(CNC(=O)c2cc(-c3cncc(C)c3)ccc2-c2ccccc2)nc1OC	=	0.3
Cc1ncc(OC[C@@]2(c3ccccc3)C[C@H]2C(=O)Nc2ccc(Cl)cn2)c(C)n1	=	2
COc1ccc(OC[C@@]2(c3ccccc3)C[C@H]2C(=O)N(C)c2ccccc2)cc1OC	=	4680
COc1cccc(OC[C@@]2(c3ccccc3)C[C@H]2C(=O)Nc2ccccn2)c1	=	1330
O=C(c1cccc2ncccc12)N1CCC(F)(F)C(Oc2ccc3ccccc3n2)C1 (racemic)	=	861
COc1ccc(CNC(=O)c2cc(-c3cc(C)cc(C)c3)cnc2-c2cccnc2)cc1	=	22
CC1CCC(Oc2cccc3cnccc23)CN1C(=O)c1ccccc1-n1nccn1 (racemic)	=	7.5
CC1CCC(Oc2ccnc3ccc(Br)cc23)CN1C(=O)c1ccccc1-n1nccn1 (racemic)	=	5.2
Cc1ccc(-n2nccn2)c(C(=O)N2C[C@H](C#Cc3ccc(CO)nc3)CC[C@H]2C)c1	=	150
Cc1cccnc1O[C@@H]1CC[C@@H](C)N(C(=O)c2ccccc2-n2nccn2)C1	=	621
CC1CCC(Oc2c(Br)cnc3ccccc23)CN1C(=O)c1ccccc1-n1nccn1 (racemic)	=	180
COc1ccc(OC[C@@]2(c3ccccc3)C[C@H]2C(=O)Nc2cccnc2)cc1OC	=	51
COc1ccc(S(=O)(=O)N2CCC[C@H]2C(=O)Nc2cc(C)cc(C)c2)cc1	=	0.631
COc1ccc(CNC(=O)c2cc(-c3cc(Cl)cc(Cl)c3)cnc2-c2cccnc2)cc1OC	=	0.07
